target: CDK2 (Homo sapiens, UniProt P24941); construct: High-Throughput Measurement of Cellular Endogenous CDK2; endogenous in cells; assay: Inhibition of CDK2: phospho-Rb (S807/811) HTRF measurement in OVCAR3 cells, 24 h; settings: 24 h compound treatment, read-out: pRB_OVCAR3_24h
pIC50: −log10 of the molar value.
Recorded pIC50 by entry

> print(dat)
                                   compound  reported.value
1  C=Cc1cnc(NC2CCN(S(=O)(=O)c3cccc(CN4CCC(c5ccc6c(N7CCC(=O)NC7=O)nn(C)c6c5)CC4)c3)CC2)nc1    6.30 to 7.00
2  Cn1nc(N2CCC(=O)NC2=O)c2ccc(C3CCN(Cc4cnn(C5CCN(S(=O)(=O)N6CCC(Nc7ncc(Cl)cn7)CC6)CC5)c4)CC3)cc21          < 5.60

Let's switch to this compound now.
Return pIC50 measured with CDK2 (Homo sapiens, UniProt P24941) given this compound: Cn1nc(N2CCC(=O)NC2=O)c2ccc(C3CCN(Cc4cccc(S(=O)(=O)[C@H]5CC[C@H](Nc6ncc(Cl)cn6)CC5)c4)CC3)cc21 < 5.60

// provenance: patent US20260167623A1
